The binders listed here are annotated with their pKd.
TEST_TARGET: T1, PUF4 RNA-binding domain (Saccharomyces cerevisiae, UniProt P25339 537-888)
T1 sequence: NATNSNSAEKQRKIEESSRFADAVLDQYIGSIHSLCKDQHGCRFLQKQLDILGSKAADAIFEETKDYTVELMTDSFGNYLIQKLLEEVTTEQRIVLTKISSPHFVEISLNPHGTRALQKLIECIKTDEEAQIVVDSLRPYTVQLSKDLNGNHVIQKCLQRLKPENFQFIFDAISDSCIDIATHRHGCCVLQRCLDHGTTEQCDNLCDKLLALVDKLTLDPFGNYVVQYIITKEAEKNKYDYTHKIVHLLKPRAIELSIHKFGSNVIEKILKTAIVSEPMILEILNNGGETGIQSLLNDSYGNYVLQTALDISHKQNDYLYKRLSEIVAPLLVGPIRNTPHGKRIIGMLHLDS
TEST_PROTOCOL: Mg; RNA-MaP; 20 mM Na-HEPES pH 7.4, 30 mM KOAc, 0.75 mM MgCl2, 0.1% Tween-20, 5% glycerol, 0.1 mg/mL BSA, 2 mM DTT; 25 C; 0.0125-409.6 nM protein
CONDITION: tags: N-His6-TEV cleaved; C-SNAP kept, Cy3B-labelled; label: tethered on chip by stalled RNA polymerase
Hey, just a heads up that pKd is the negative log base 10 of the concentration in molar.

Input line: Fill in the blank: the reported pKd of Ic_S4_P4E.1_K4.1_C4.1_H4.1_A4.1_F4.1_T4.1 (ssRNA) RNA: UUUGACAACUGAUCGUUCUUUCUUGUAUAUUAUUCUUUCUCGAUCAGUUGUCUUU is ____.
Output line: 9.44

Input line: Fill in the blank: the reported pKd of Id_ii_S2_P4E.2_K4.1_C4.2_[C-2T]_[T-1C]_H4.1_A4.1_F4.1_T4.2_[G10C] (ssRNA) RNA: UUUGAUUAAUAUGAUAUCGUUCUUUCUUCUGUAUAUUACUUUCUUUCUCGAUAUCAUAUUAAUCUUU is ____.
Output line: 9.22

Input line: Fill in the blank: the reported pKd of UCUCUUUGUAUUUGUCUCUU (ssRNA) [Ic_S1_P3E.1_K3.1_C3.1_H3.1_A3.1_[A6T]_F3.1_[A8G]_T3.1] is ____.
Output line: 6.97

Input line: Fill in the blank: the reported pKd of Ic_S4_P4E.1_K4.1_C4.1_H4.1_A4.1_[T5A]_[A6C]_[T7G]_F4.1_[A9T]_T4.1 (ssRNA) RNA: UUUGACAACUGAUCGUUCUUUCUUGUAACGUUUUCUUUCUCGAUCAGUUGUCUUU is ____.
Output line: 7.07

Input line: Fill in the blank: the reported pKd of UCUCUUUGUAAAGUAUCUCUU (ssRNA) [Ic_S1_P4E.1_K4.1_C4.1_H4.1_A4.1_[T5A]_[T7G]_F4.1_T4.1] is ____.
Output line: 8.14

Input line: Fill in the blank: the reported pKd of Id_ii_S2_P4E.2_K4.1_C4.2_[C-2T]_[T-1A]_H4.1_A4.1_F4.1_T4.2_[G10A] (ssRNA) RNA: UUUGAUUAAUAUGAUAUCGUUCUUUCUUAUGUAUAUUAAUUUCUUUCUCGAUAUCAUAUUAAUCUUU is ____.
Output line: 9.06

Input line: Fill in the blank: the reported pKd of UCUCUUUGUACUACCUCUCUU (ssRNA) [Ic_S1_P4E.1_K4.1_C4.1_H4.1_A4.1_[T5C]_[A6T]_[T7A]_F4.1_[T8C]_[A9C]_T4.1] is ____.
Output line: 6.32

Input line: Fill in the blank: the reported pKd of Id_ii_S2_P4E.3_K4.2_C4.2_H4.2_A4.1_F4.1_T4.2_[T11C] (ssRNA) RNA: UUUGAUUAAUAUGAUAUCGUUCUUUCUCUUAUAUAUUAGCUUCUUUCUCGAUAUCAUAUUAAUCUUU is ____.
Output line: 8.14

Input line: Fill in the blank: the reported pKd of UCUCUUUAUAUAUUUUCUCUU (ssRNA) [Ib_S1_P4E.1_K4.1_C4.1_H4.1_[G2A]_A4.1_F4.1_[A9T]_T4.1] is ____.
Output line: 6.38

Input line: Fill in the blank: the reported pKd of UCUCUUAUUAUAUAUAGCUCUCUU (ssRNA) [Id_ii_S1_P3E.3_K3.2_C3.2_[C-2A]_H3.2_A3.1_F3.1_T3.2_[T9G]_[A10C]] is ____.
Output line: 5.88
